MEASURED_ON: α-glucosidase enzyme (EC3.2.1.20) (Saccharomyces cerevisiae, UniProt P53341)
Construct: purchased Sigma-Aldrich
Sequence (P53341 whole entry): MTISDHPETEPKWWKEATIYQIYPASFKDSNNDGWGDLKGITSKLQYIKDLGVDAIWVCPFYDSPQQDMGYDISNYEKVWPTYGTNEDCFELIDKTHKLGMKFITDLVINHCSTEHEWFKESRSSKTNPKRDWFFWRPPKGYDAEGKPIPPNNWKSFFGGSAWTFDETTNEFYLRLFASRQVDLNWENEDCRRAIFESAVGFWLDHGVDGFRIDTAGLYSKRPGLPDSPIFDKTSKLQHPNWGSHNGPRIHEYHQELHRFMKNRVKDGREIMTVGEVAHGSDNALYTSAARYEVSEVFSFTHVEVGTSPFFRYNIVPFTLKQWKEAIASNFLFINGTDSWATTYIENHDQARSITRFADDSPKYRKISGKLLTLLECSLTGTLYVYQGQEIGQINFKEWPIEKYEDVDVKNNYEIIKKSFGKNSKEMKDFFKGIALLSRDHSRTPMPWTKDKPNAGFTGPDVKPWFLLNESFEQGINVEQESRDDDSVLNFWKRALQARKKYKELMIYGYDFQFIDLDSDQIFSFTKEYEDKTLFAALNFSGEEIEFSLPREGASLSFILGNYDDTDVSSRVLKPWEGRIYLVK
ASSAY: biochemical
CONDITION: read-out: % inhibition of α-glucosidase
Recorded inhibition at 10 µg/mL, one value per entry.

The examples below pair each entry with its known result.
COMPOUND_STRUCTURE_STRING	RECORDED_METRIC	EXPERIMENTAL_VALUE
C/C(=N\N1C(=O)/C(=C/c2ccccc2O)NC1=S)c1ccccc1O	inhibition at 10 µg/mL	44.9%
C/C(=N\N1C(=O)/C(=C/c2cc(Br)ccc2O)NC1=S)c1ccccc1O	inhibition at 10 µg/mL	36.4%
COC(=O)CCN1C(=S)N(/N=C(\C)c2ccccc2O)C(=O)/C1=C/c1cc(Br)ccc1OC(C)=O	inhibition at 10 µg/mL	47.8%

-- ask Field request: inhibition at 10 µg/mL | item: COC(=O)CCN1C(=S)N(N=C(C)c2ccccc2O)C(=O)C1=Cc1ccccc1OC(C)=O
-- reply 48.3%

Origin of values: paper PMC9785777
